Attribute: pEC50
Molecular target: TRβ-LBD / SRC2-2 peptide interaction (Homo sapiens)
Sequence (P10828 217-461 limits assumed): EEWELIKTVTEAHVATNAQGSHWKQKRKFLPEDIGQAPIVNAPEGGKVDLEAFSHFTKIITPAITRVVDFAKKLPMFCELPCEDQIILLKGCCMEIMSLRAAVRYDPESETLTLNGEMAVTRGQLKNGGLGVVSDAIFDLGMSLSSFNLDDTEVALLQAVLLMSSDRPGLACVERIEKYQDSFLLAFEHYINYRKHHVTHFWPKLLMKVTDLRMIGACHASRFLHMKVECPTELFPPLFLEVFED
Experiment: Fluorescence polarization
Type: binding
pEC50: −log10 of the molar value.
MEASURE: pEC50

[
  {
    "SMILES": "CCCN(C(=O)CNC(=O)c1ccc(S(C)(=O)=O)c([N+](=O)[O-])c1)c1ccccc1",
    "MEASURE": "pEC50",
    "COMPARISON SYMBOL": "=",
    "NUMERIC VALUE": 5.18
  },
  {
    "SMILES": "CN(CC(=O)N(Cc1ccccc1)Cc1ccccc1)C(=O)c1ccc(S(C)(=O)=O)c([N+](=O)[O-])c1",
    "MEASURE": "pEC50",
    "COMPARISON SYMBOL": "<",
    "NUMERIC VALUE": 4.22
  },
  {
    "SMILES": "CS(=O)(=O)c1ccc(C(=O)NCC(=O)NC23CC4CC(CC(C4)C2)C3)cc1[N+](=O)[O-]",
    "MEASURE": "pEC50",
    "COMPARISON SYMBOL": "=",
    "NUMERIC VALUE": 4.80
  },
  {
    "SMILES": "CN(C(=O)CNC(=O)c1ccc(S(C)(=O)=O)c([N+](=O)[O-])c1)c1ccccc1",
    "MEASURE": "pEC50",
    "COMPARISON SYMBOL": "=",
    "NUMERIC VALUE": 5.24
  }
]
